Data origin: patent US12674148B2

Molecular target: MERS-CoV RdRp (Middle East respiratory syndrome-related coronavirus, UniProt K9N7C7)
Sequence (K9N7C7 4378-5310 limits assumed): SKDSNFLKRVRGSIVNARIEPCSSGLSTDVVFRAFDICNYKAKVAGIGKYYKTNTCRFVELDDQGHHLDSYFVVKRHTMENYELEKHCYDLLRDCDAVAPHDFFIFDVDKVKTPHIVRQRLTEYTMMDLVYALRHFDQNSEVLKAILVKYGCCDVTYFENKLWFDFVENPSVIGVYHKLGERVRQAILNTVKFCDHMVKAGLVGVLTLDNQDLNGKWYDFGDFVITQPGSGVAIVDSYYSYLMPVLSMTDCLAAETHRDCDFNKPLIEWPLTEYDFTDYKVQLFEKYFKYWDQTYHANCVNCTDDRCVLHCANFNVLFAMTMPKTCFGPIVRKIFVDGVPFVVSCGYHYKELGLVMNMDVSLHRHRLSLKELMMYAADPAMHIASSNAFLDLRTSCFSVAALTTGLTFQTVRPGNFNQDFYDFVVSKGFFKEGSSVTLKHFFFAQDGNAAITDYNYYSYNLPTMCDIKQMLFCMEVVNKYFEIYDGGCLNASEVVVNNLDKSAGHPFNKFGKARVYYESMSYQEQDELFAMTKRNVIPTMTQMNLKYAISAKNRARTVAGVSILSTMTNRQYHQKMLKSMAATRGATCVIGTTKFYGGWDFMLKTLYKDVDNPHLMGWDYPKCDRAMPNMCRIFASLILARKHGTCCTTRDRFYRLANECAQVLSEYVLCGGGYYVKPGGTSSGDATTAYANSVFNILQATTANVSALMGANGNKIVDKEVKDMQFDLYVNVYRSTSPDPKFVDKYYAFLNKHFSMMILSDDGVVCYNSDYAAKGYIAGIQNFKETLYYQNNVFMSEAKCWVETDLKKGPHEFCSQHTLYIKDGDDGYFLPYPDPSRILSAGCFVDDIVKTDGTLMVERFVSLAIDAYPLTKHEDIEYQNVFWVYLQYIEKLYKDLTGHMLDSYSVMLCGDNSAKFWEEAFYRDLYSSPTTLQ
Experiment: cell-based
Details: HEK-293T, read-out: MERS-CoV RdRp activity (%)
OUTCOME_MEASURE: activity at 100 µM (%)
Reply with just the number (in %).

// query activity at 100 µM value for entry Nc1ccn([C@@H]2CS[C@H](CO)O2)c(=O)n1 [lamivudine]
98.3

// query activity at 100 µM value for entry CC(C)OC(=O)[C@H](C)N[P@](=O)(OC[C@H]1O[C@@H](n2ccc(=O)[nH]c2=O)[C@](C)(F)[C@@H]1O)Oc1ccccc1 [sofosbuvir]
62.4

// query activity at 100 µM value for entry NC(=O)c1nc(F)c[nH]c1=O [favipiravir]
85.8

// query activity at 100 µM value for entry Cc1cn([C@H]2C[C@H](N=[N+]=[N-])[C@@H](CO)O2)c(=O)[nH]c1=O [zidovudine]
111

// query activity at 100 µM value for entry NC(=O)c1ncn([C@@H]2O[C@H](CO)[C@@H](O)[C@H]2O)n1 [ribavirin]
60.3

// query activity at 100 µM value for entry Nc1ncnc2c1ncn2[C@@H]1O[C@H](CO)[C@@H](O)[C@@H]1O [vidarabine]
89.9

// query activity at 100 µM value for entry CC(C)[C@H](N)C(=O)OCCOCn1cnc2c(=O)[nH]c(N)nc21 [valacyclovir]
90.2

###

Molecular target: MERS-CoV RdRp (Middle East respiratory syndrome-related coronavirus, UniProt K9N7C7)
Test: cell-based
OUTCOME_MEASURE: effect on MERS-CoV RdRp activity (in words)

SMILES_RECORD: CC(C)OC(=O)[C@H](C)N[P@](=O)(OC[C@H]1O[C@@H](n2ccc(=O)[nH]c2=O)[C@](C)(F)[C@@H]1O)Oc1ccccc1
RESULT: no significant effect
//
SMILES_RECORD: NC(=O)c1ncn([C@@H]2O[C@H](CO)[C@@H](O)[C@H]2O)n1
RESULT: no significant effect
//
SMILES_RECORD: NC(=O)c1nc(F)c[nH]c1=O
RESULT: no significant effect
